Water solubility ± std overview
assay: Water solubility from saturated aqueous solution, UV quantification; assay type: physicochemical; conditions: 25 °C, pure water
measurement-name: Water solubility ± std (mM)

- compound: "C[N+](C)(C)CCO.C[N+](C)(C)CCO.O=c1oc2c(O)c([O-])cc3c(=O)oc4c(O)c([O-])cc1c4c23 [[Chol]2[Ell]]"
  u: "mM"
  reading: 622.97
- compound: "C[N+](C)(C)CCO.O=C([O-])c1cc(O)c(O)c(O)c1 [[Chol][Gal]]"
  u: "mM"
  reading: 2402.27
- compound: "COc1cc(C(=O)[O-])cc(OC)c1O.C[N+](C)(C)CCO [[Chol][Syr]]"
  u: "mM"
  reading: 2793.71

====

experiment: Thermogravimetric analysis; assay type: physicochemical; conditions: TGA onset, nitrogen atmosphere, 10 °C.min^-1

- compound: "C[N+](C)(C)CCO.O=C([O-])c1cc(O)c(O)c(O)c1 [[Chol][Gal]]"
  Temperature of decomposition (Td): "185.3 ºC"
- compound: "O=c1oc2c(O)c(O)cc3c(=O)oc4c(O)c(O)cc1c4c23 [ellagic acid, reference compound]"
  Temperature of decomposition (Td): "472.6 ºC"
- compound: "COc1cc(C(=O)O)ccc1O [vanillic acid, reference compound]"
  Temperature of decomposition (Td): "233.7 ºC"
- compound: "COc1cc(C(=O)[O-])ccc1O.C[N+](C)(C)CCO [[Chol][Van]]"
  Temperature of decomposition (Td): "186.8 ºC"
- compound: "O=C(O)c1ccccc1O [salicylic acid, reference compound]"
  Temperature of decomposition (Td): "183.9 ºC"

====

system: Raw 264.7 cells; experiment: Cytotoxicity, resazurin metabolic conversion, Raw 264.7; assay type: cell-based, mouse; details: read-out: EC50, 50% decrease in cell viability; Raw 264.7, 24 hours of exposure
measurement-name: EC50 (µM)

- molecule: "O=C(O)c1cc(O)c(O)c(O)c1 [[Chol][Gal]]"
  measurement-name: "EC50"
  reading: 836
- molecule: "O=C(O)/C=C/c1ccc(O)c(O)c1 [[Chol][Caf]]"
  measurement-name: "EC50"
  reading: 2340

Every entry's value here was drawn from paper PMC5330449.
